measurementDescription: Human HepG2 cell viability assay in 384 well format
Assay type: toxicity, cell-based
Design: dose 125 nL, time 70.5 hour; concentration not given beside the values
runParameters: HepG2 cells, read-out: Inhibition
Entries and their cytotoxicity at 70.5 h values follow.
Your answer should be a plain number; it is taken to be in %.

{"columns": ["compound", "cytotoxicity at 70.5 h, %"],
 "data": [
  ["COCCN1CCCC(CCCc2ccccn2)(C(N)=O)C1 (stereo unspecified)", -6.05],
  ["CNC(=O)c1ccc(C(=O)N2CCCC2c2c(C)nn(C)c2C)cn1 (stereo unspecified)", -4.27],
  ["Cc1cc2[nH]c(CN3CCOC(Cc4ccccc4)C3)cc(=O)n2n1 (stereo unspecified)", 18.7]
]}

Give its cytotoxicity at 70.5 h value. Item: O=C(c1cccc(Cl)c1)N1CCCn2c(CN3CCCCC3)nnc2C1
-1.86

Entry COc1ccccc1C(C)CNC(=O)c1c(C)nn(C)c1OC (stereo unspecified) please
-3.39

Another compound to look at: COC(=O)c1ccc(NS(=O)(=O)c2cnc(NC(C)=O)s2)cc1
-12

----------
measurementDescription: Human HepG2 cell viability assay in 384 well format
Type: toxicity, cell-based
Set-up: dose 125 nL, time 70.5 hour; concentration not given beside the values
runParameters: HepG2 cells, read-out: Inhibition
readoutLabel: cytotoxicity at 70.5 h
Kindly report the value followed by its unit.

{"columns": ["compound", "result"],
 "data": [
  ["Cc1cc(-c2ccccc2C(=O)O)nc(C2CCCN2S(C)(=O)=O)n1 (stereo unspecified)", "-1.81%"],
  ["COCCN1CCc2c(c(COc3cccnc3)nn2C)C1", "-8.79%"],
  ["Cc1nnc(SCC(=O)N2CCc3[nH]nc(C4CCC4)c3C2)o1", "8.24%"],
  ["Fc1ccc(C2(NCc3noc(C4CC4)n3)CCC2)cc1", "8.34%"],
  ["CN(CCO)Cc1nnc(C2CCN(C(=O)c3cccn3C)CC2)n1C", "-5.93%"]
]}

# ---- query compound ----
Which cytotoxicity at 70.5 h reading was recorded for the compound Cc1cccc(CCNC(=O)CCS(=O)(=O)C2CCCC2)c1 ?
-5.57%

----------
measurementDescription: Human HepG2 cell viability assay in 384 well format
Type: toxicity, cell-based
Parameters: dose 125 nL, time 70.5 hour; concentration not given beside the values
runParameters: HepG2 cells, read-out: Inhibition
readoutLabel: cytotoxicity at 70.5 h (%)
# output: bare number, implied unit %

Please review the following examples before continuing.
{"columns": ["compound", "cytotoxicity at 70.5 h [%]"],
 "data": [
  ["O=C(NCc1ccc2[nH]c(=O)[nH]c2c1)c1ccc(CN2CCCC2)o1", -9.98],
  ["Cc1cc(C)c2nc(CN[C@H]3CCCNC3)cc(O)c2c1", -2.89],
  ["Cc1cc(C[S+]([O-])CC(=O)NCc2cccs2)no1 (stereo unspecified)", -4.91],
  ["COCCN(C/C=C/c1ccccc1)Cc1ncc[nH]1", -5.41],
  ["CC(C)Sc1ccc(C(C)NC(=O)CNS(C)(=O)=O)cc1 (stereo unspecified)", 17]
]}

Attention now shifts to the item below.
So what's the measured cytotoxicity at 70.5 h for this one? CC(CNC1CCN(c2ccccn2)CC1)Oc1ccc(F)cc1 (stereo unspecified)
23.5
